Assay: Phase solubility study (apparent solubility of DIA and Rhe with ILs or HP-β-CD)
Type: physicochemical
Conditions: Bet6 solutions in citrate buffer, 25 °C, pH 5, aqueous with cosolvent or surfactant or cyclodextrin, thermodynamic from solid; in Bet6 solutions; read-out: saturation solubility
measurementKind: solubility at 30 min (µg/mL)
Quick note: give the figure in µg/mL, leave out the unit.

QUERY: Give the measured solubility at 30 min of `CC(=O)Oc1cccc2c1C(=O)c1c(OC(C)=O)cc(C(=O)O)cc1C2=O` .
RESULT: 1350

====

Experiment: Phase solubility study (apparent solubility of DIA and Rhe with ILs or HP-β-CD)
Format: physicochemical
Details: 25 °C, aqueous with cosolvent or surfactant or cyclodextrin, thermodynamic from solid, in Carn6 solutions; read-out: saturation solubility
measurementKind: solubility at 30 min (µg/mL)
Quick note: give the figure in µg/mL, leave out the unit.

QUERY: Give the measured solubility at 30 min of `O=C(O)c1cc(O)c2c(c1)C(=O)c1cccc(O)c1C2=O` .
RESULT: 130

====

Experiment: DIA elimination and degradation kinetics in tear fluid
Type: in vivo, New Zealand albino rabbits
Settings: male, New Zealand albino, topical, 50 µL (one drop) of 0.34 M DIA, DIA in rabbit tear fluid, one drop (50 μL), 0.27 M IL, n = 10
measurementKind: MRT (min)
Quick note: give the figure in min, leave out the unit.

QUERY: Give the measured MRT of `CC(=O)Oc1cccc2c1C(=O)c1c(OC(C)=O)cc(C(=O)O)cc1C2=O` .
RESULT: 4.55
